The molecules listed here are annotated with their EC50.
Target: Human STING (Homo sapiens, UniProt Q86WV6, G230A/H232R/R293Q/R71H)
Sequence (Q86WV6 whole entry R71H/G230A/H232R/R293Q): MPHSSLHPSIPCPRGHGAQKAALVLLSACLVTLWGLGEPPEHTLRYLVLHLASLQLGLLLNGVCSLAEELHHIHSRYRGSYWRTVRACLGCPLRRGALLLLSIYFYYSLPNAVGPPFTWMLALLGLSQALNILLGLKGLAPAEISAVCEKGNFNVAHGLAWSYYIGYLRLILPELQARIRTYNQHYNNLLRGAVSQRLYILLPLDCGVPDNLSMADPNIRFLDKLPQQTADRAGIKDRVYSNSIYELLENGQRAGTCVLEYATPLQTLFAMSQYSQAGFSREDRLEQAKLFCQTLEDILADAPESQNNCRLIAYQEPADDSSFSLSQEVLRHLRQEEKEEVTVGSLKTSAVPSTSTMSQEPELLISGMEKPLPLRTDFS
Experiment: Activation of human STING signaling in permeabilized THP1 cells, IRF3 induction
Details: THP1-Dual cells permeabilized with digitonin buffer 30 minutes on ice, then 24 h in RPMI media
experimental.endpoint: EC50

* COc1cc(C(N)=O)cc2nc(NC(=O)c3nc(C)oc3C)n(C/C=C/Cn3c(NC(=O)c4nc(C)oc4C)nc4cc(C(N)=O)cc(OCCCO)c43)c12 [compound 13] | ≥ 50000 nM
* CCc1nc(C)oc1C(=O)Nc1nc2cc(C(N)=O)cnc2n1C/C=C/Cn1c(NC(=O)c2oc(C)nc2CC)nc2cc(C(N)=O)cc(OCCCO)c21 [compound 95] | < 1000 nM
* CCc1nc(C)oc1C(=O)/N=c1\sc2cc(C(N)=O)cc(OC)c2n1C/C=C/Cn1c(NC(=O)c2oc(C)nc2CC)nc2cc(C(N)=O)cc(OCCCC(=O)O)c21 [compound 66] | < 1000 nM
* CCc1nc(C)oc1C(=O)Nc1nc2cc(C(N)=O)cc(OCCCO)c2n1C/C=C/Cn1c(NC(=O)c2cc(C)nn2CC)nc2cc(C(N)=O)ccc21 [compound 51] | < 1000 nM
* CCc1nc(C)oc1C(=O)Nc1nc2cc(C(N)=O)cnc2n1C/C=C/Cn1c(NC(=O)c2sc(C)nc2CC)nc2cc(C(N)=O)cc(OCCCC(=O)O)c21 [Compound 151] | < 1000 nM
* CCc1nc(C)oc1C(=O)Nc1nc2cc(C(N)=O)cc(OC)c2n1C/C=C/Cn1c(NC(=O)c2oc(C)nc2CC)nc2cc(C(N)=O)cc(OCCCC(=O)O)c21 [compound 19] | < 1000 nM

* * *

Molecular target: Human STING (Homo sapiens, UniProt Q86WV6, G230A/H232R/R293Q/R71H)
Experiment: Activation of human STING signaling in permeabilized THP1 cells, IRF3 induction
Details: THP1-Dual cells permeabilized with digitonin buffer 30 minutes on ice, then 24 h in RPMI media
The compounds listed here are annotated with their EC50.
experimental.endpoint: EC50

- CCc1nc(C)sc1C(=O)Nc1nc2cc(C(N)=O)cc(OC)c2n1C/C=C/Cn1c(NC(=O)c2sc(C)nc2CC)nc2cc(C(N)=O)cc(OCCCC(=O)O)c21 [Compound 141]: 1000 to 50000 nM
- CCc1nc(C)sc1C(=O)/N=c1\sc2cc(C(N)=O)cnc2n1C/C=C/Cn1c(NC(=O)c2sc(C)nc2CC)nc2cc(C(N)=O)cc(OCCCO)c21 [Compound 145]: ≥ 50000 nM
- COc1cc(C(N)=O)cc2nc(NC(=O)c3cnc(C(F)(F)F)s3)n(C/C=C/Cn3c(NC(=O)c4cnc(C(F)(F)F)s4)nc4cc(C(N)=O)cc(OCCCO)c43)c12 [compound 17]: ≥ 50000 nM
- CCn1nc(C)cc1C(=O)/N=c1\sc2cc(C(N)=O)cnc2n1C/C=C/Cn1c(NC(=O)c2cc(C)nn2CC)nc2cc(C(N)=O)cc(OCCCC(=O)O)c21 [Compound 140]: < 1000 nM
- CCn1nc(C)cc1C(=O)Nc1nc2cc(C(=O)OC)cnc2n1C/C=C/Cn1c(NC(=O)c2cc(C)nn2CC)nc2cc(C(N)=O)cc(OCCCO)c21 [Compound 123]: < 1000 nM
- CCn1nc(C)cc1C(=O)Nc1nc2cc(CNC(C)=O)cnc2n1C/C=C/Cn1c(NC(=O)c2cc(C)nn2CC)nc2cc(C(N)=O)cc(OC)c21 [Compound 137]: ≥ 50000 nM
- CCc1nc(C)oc1C(=O)/N=c1\sc2cc(C(N)=O)cc(OC)c2n1C/C=C/Cn1c(NC(=O)c2sc(C)nc2CC)nc2cc(C(N)=O)cc(OCCCO)c21 [compound 70]: ≥ 50000 nM
- CCc1nc(C)sc1C(=O)Nc1nc2cc(C(N)=O)cc(OCCCO)c2n1C/C=C/Cn1c(NC(=O)c2cc(C)nn2CC)nc2cc(C(N)=O)cc(OC)c21 [compound 38]: < 1000 nM
- CCn1nc(C)cc1C(=O)Nc1nc2cc(CN(C)C)cnc2n1C/C=C/Cn1c(NC(=O)c2cc(C)nn2CC)nc2cc(C(N)=O)cc(OC)c21 [Compound 132]: 1000 to 50000 nM
- CCc1nc(C)oc1C(=O)Nc1nc2cc(C(N)=O)cc(OC)c2n1C/C=C/Cn1c(NC(=O)c2sc(C)nc2CC)nc2cc(C(N)=O)cc(OCCCO)c21 [compound 40]: < 1000 nM
- CCc1nc(C)oc1C(=O)Nc1nc2cc(C(N)=O)cc(OC)c2n1C/C=C/Cn1c(NC(=O)c2cc(C)nn2CC)nc2cc(C(N)=O)cc(OCCCO)c21 [compound 43]: < 1000 nM
